ASSAY PROCEDURE: qHTS assay to identify small molecule inhibitors of chordoma cells - UCH-1 (AID 1259355); note: nearly all actives have a fitted effect of over 55% in size
TEST CONTEXT: UCH-1 chordoma viability, CellTiter-Glo, 48 h, combination, with auranofin plus four topoisomerase inhibitors; series mostly up to 46.1 µM
Records with an inconclusive call do not appear. Active and inactive are the calls of the source. Calls come from the whole dose curve; as a rule, active = well fitted cell-killing curve with a large enough effect; inconclusive = small, poorly fitted or top-dose-only effect, or effect the other way; inactive = no such curve, though single readings can be large or run the other way.
OBSERVED PROPERTY: outcome

CS(=O)(=O)c1ccc(C2=C(c3ccccc3)C(=O)OC2)cc1; inactive
NS(=O)(=O)c1cc(Cl)c(Cl)c(S(N)(=O)=O)c1; inactive
N#Cc1c(N(CC(=O)O)CC(=O)O)sc(C(=O)O)c1CC(=O)O; inactive
